Target: Aminopeptidase N (Homo sapiens, UniProt P15144)
Sequence (P15144 whole entry): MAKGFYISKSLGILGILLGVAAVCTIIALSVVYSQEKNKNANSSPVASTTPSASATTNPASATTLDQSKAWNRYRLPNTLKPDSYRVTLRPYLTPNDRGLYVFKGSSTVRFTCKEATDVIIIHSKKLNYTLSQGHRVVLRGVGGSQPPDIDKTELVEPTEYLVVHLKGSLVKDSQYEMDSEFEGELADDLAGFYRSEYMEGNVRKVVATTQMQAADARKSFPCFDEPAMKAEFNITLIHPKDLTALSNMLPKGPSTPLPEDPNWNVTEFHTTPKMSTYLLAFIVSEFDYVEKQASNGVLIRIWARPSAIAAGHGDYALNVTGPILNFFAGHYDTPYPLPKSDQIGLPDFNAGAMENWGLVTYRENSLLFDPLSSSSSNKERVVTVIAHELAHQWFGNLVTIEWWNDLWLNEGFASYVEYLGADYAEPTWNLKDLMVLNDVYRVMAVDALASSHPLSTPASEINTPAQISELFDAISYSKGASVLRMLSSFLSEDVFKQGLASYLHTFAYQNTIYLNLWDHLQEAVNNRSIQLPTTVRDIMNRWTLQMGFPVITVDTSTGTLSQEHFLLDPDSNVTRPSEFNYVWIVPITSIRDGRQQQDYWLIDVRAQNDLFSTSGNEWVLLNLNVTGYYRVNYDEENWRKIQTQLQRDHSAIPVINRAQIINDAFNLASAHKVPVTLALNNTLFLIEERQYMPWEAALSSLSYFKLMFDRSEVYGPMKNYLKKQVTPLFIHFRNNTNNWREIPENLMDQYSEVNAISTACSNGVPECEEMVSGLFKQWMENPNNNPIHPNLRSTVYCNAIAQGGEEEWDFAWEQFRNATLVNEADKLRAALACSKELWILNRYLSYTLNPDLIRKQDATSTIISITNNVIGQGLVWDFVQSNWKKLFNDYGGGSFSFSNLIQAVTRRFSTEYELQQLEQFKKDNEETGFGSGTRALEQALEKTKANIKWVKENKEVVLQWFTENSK
Assay: Inhibition of aminopeptidase N in human ES2 cells using L-leu-p-nitroanilide as substrate incubated for 5 mins prior to substrate addition measured after 30 mins by spectrophotometric analysis
pIC50: −log10 of the molar value.
Measured pIC50 values are reported for all entries that follow.
PROPERTY_MEASURED: pIC50

chemical_smiles=CC(C)C[C@H](NC(=O)NCc1ccccc1Cl)C(=O)NO property_measured=pIC50 measured_number=6.19
chemical_smiles=COc1ccccc1NC(=O)N[C@@H](CC(C)C)C(=O)NO property_measured=pIC50 measured_number=6.15
chemical_smiles=CC(C)C[C@H](NC(=O)Nc1ccccc1Cl)C(=O)NO property_measured=pIC50 measured_number=5.88
chemical_smiles=CC(C)C[C@H](NC(=O)Nc1ccccc1Br)C(=O)NO property_measured=pIC50 measured_number=6.28
chemical_smiles=Cc1ccccc1NC(=O)N[C@@H](CC(C)C)C(=O)NO property_measured=pIC50 measured_number=6.21
chemical_smiles=CC(C)C[C@H](NC(=O)NCc1ccccc1Br)C(=O)NO property_measured=pIC50 measured_number=6.14

----------
Target: Aminopeptidase N (Sus scrofa, UniProt P15145)
Sequence (P15145 whole entry): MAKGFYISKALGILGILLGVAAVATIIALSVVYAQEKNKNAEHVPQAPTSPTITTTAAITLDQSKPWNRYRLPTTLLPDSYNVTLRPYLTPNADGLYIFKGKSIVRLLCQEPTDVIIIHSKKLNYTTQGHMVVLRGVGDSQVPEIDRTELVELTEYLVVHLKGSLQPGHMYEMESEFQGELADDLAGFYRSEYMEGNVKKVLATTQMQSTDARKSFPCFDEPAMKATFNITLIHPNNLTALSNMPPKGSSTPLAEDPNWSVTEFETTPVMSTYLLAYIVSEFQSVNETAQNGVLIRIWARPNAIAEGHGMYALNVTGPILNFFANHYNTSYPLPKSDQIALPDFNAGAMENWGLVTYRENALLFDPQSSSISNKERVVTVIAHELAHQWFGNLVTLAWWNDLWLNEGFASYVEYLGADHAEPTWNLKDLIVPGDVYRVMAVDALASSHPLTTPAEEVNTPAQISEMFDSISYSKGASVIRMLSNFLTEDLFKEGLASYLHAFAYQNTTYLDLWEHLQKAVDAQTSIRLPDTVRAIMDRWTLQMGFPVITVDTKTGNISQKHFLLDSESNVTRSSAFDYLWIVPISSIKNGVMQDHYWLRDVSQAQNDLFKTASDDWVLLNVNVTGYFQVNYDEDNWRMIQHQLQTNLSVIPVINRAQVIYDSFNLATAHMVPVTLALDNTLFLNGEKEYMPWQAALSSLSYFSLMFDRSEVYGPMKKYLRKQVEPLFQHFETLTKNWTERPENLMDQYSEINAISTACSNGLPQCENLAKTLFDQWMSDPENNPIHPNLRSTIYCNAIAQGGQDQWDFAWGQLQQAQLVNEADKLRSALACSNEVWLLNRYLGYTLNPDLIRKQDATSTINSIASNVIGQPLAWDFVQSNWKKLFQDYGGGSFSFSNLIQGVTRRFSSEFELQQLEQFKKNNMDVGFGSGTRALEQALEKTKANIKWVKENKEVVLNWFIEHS
Threshold check on IC50: strictly below 800 nM is label 1; on or above 800 nM is label 0.

chemical_smiles=Cc1cccc(CNC(=O)N[C@@H](CC(C)C)C(=O)NO)c1 assigned_label="label 1"
chemical_smiles=CC(C)C[C@H](NC(=O)Nc1cccc(Cl)c1)C(=O)NO assigned_label="label 0"
chemical_smiles=Cc1ccccc1CNC(=O)N[C@@H](CC(C)C)C(=O)NO assigned_label="label 0"
chemical_smiles=CC(C)C[C@H](NC(=O)NCc1ccccc1Br)C(=O)NO assigned_label="label 1"
chemical_smiles=CC(C)C[C@H](NC(=O)Nc1ccccc1Cl)C(=O)NO assigned_label="label 1"
chemical_smiles=CC(C)C[C@H](NC(=O)Nc1ccccc1)C(=O)NO assigned_label="label 0"
chemical_smiles=COc1cccc(NC(=O)N[C@@H](CC(C)C)C(=O)NO)c1 assigned_label="label 0"
chemical_smiles=CC(C)C[C@H](NC(=O)Nc1cccc(Br)c1)C(=O)NO assigned_label="label 1"
chemical_smiles=CC(C)C[C@H](NC(=O)Nc1ccccc1F)C(=O)NO assigned_label="label 1"
